- test_protocol: Microsomal stability
- Format: in vitro ADME, mice
- reported_conditions: after 60 min incubation, NADP, 37 °C
Entries and their measured microsomal stability, percentage of remaining compound (mice) follow.
experimental_endpoint: microsomal stability, percentage of remaining compound (mice)

{"smiles_data": "CC12CC3CC(NC(=O)Nc4ccc(F)c(F)c4F)(CC(C1)c1ccccc13)O2", "observed_result": "23%"}
{"smiles_data": "CC12CC3CC(NC(=O)Nc4ccc(F)c(F)c4F)(CC(C1)c1ccccc13)C2", "observed_result": "0.2%"}
{"smiles_data": "O=C(NC12CC3CC(Cl)(CC(C1)c1ccccc13)C2)N[C@H]1CC[C@H](Oc2ccc(C(=O)O)cc2)CC1", "observed_result": "29%"}
{"smiles_data": "CC12CC3CC(NC(=O)N[C@H]4CC[C@H](Oc5ccc(C(=O)O)cc5)CC4)(CC(C1)c1ccccc13)C2", "observed_result": "10%"}
{"smiles_data": "CC12CC3CC(NC(=O)N[C@H]4CC[C@H](Oc5ccc(C(=O)O)cc5)CC4)(CC(C1)c1ccccc13)O2", "observed_result": "83%"}
{"smiles_data": "O=C(NC12CC3CC(F)(CC(C1)c1ccccc13)C2)N[C@H]1CC[C@H](Oc2ccc(C(=O)O)cc2)CC1", "observed_result": "36%"}
